# protocol-details: Cytotoxicity against human MT2 cells
# Type: cell-based
assay-metric: CC50 (µM)

| molecule-smiles | assay-value |
| --- | --- |
| C=C(C)[C@@H]1CC[C@]2(C(=O)NCCN(C)CC(=O)O)CC[C@]3(C)[C@H](CC[C@@H]4[C@@]5(C)CC=C(c6ccc(C(=O)O)cc6)C(C)(C)[C@@H]5CC[C@]43C)[C@@H]12 | 0.2 |
| C=C(C)[C@@H]1CC[C@]2(C(=O)NCCN(CC)CC(=O)O)CC[C@]3(C)[C@H](CC[C@@H]4[C@@]5(C)CC=C(c6ccc(C(=O)O)cc6)C(C)(C)[C@@H]5CC[C@]43C)[C@@H]12 | 17 |
| C=C(C)[C@@H]1CC[C@]2(C(=O)NC)CC[C@]3(C)[C@H](CC[C@@H]4[C@@]5(C)CC=C(c6ccc(C(=O)O)cc6)C(C)(C)[C@@H]5CC[C@]43C)[C@@H]12 | 7 |

----------
# protocol-details: Cmax in cannula implanted rat at 5 mg/kg administered through oral gavage after 24 hrs by LC-MS/MS analysis
# Format: ADME, organism-based
# Set-up: dose 5 mg/kg, route oral
# test-parameters: in vivo
Recorded log10 Cmax by entry
assay-metric: log10 Cmax (log10 of the value in nM)

| molecule-smiles | log10 Cmax |
| --- | --- |
| C=C(C)[C@@H]1CC[C@]2(C(=O)NCCCN(C)C)CC[C@]3(C)[C@H](CC[C@@H]4[C@@]5(C)CC=C(c6ccc(C(=O)O)cc6)C(C)(C)[C@@H]5CC[C@]43C)[C@@H]12 | 1.56 |
| C=C(C)[C@@H]1CC[C@]2(C(=O)NCCN(CC)CC)CC[C@]3(C)[C@H](CC[C@@H]4[C@@]5(C)CC=C(c6ccc(C(=O)O)cc6)C(C)(C)[C@@H]5CC[C@]43C)[C@@H]12 | 2.36 |
| C=C(C)[C@@H]1CC[C@]2(C(=O)NCCN(C(C)C)C(C)C)CC[C@]3(C)[C@H](CC[C@@H]4[C@@]5(C)CC=C(c6ccc(C(=O)O)cc6)C(C)(C)[C@@H]5CC[C@]43C)[C@@H]12 | 2.48 |
| C=C(C)[C@@H]1CC[C@]2(C(=O)NCCN(C)C)CC[C@]3(C)[C@H](CC[C@@H]4[C@@]5(C)CC=C(c6ccc(C(=O)O)cc6)C(C)(C)[C@@H]5CC[C@]43C)[C@@H]12 | 2.60 |
| C=C(C)[C@@H]1CC[C@]2(C(=O)NCCc3ccccn3)CC[C@]3(C)[C@H](CC[C@@H]4[C@@]5(C)CC=C(c6ccc(C(=O)O)cc6)C(C)(C)[C@@H]5CC[C@]43C)[C@@H]12 | 2.24 |

----------
# Test system: Human immunodeficiency virus 1
# protocol-details: Antiviral activity against wild type HIV1 NL4-3 infected in human MT2 cells after 4 to 5 days by dual-luciferase reporter gene assay
# Format: functional, organism-based
# test-parameters: Human immunodeficiency virus 1, NL4-3, MT2
pEC50: −log10 of the molar value.
assay-metric: pEC50

| molecule-smiles | assay-value |
| --- | --- |
| C=C(C)[C@@H]1CC[C@]2(C(=O)NCCNCC(=O)O)CC[C@]3(C)[C@H](CC[C@@H]4[C@@]5(C)CC=C(c6ccc(C(=O)O)cc6)C(C)(C)[C@@H]5CC[C@]43C)[C@@H]12 | 7.38 |
| C=C(C)[C@@H]1CC[C@]2(C(=O)NS(C)(=O)=O)CC[C@]3(C)[C@H](CC[C@@H]4[C@@]5(C)CC=C(c6ccc(C(=O)O)cc6)C(C)(C)[C@@H]5CC[C@]43C)[C@@H]12 | 7.33 |
| C=C(C)[C@@H]1CC[C@]2(C(=O)NCCN(C(C)C)C(C)C)CC[C@]3(C)[C@H](CC[C@@H]4[C@@]5(C)CC=C(c6ccc(C(=O)O)cc6)C(C)(C)[C@@H]5CC[C@]43C)[C@@H]12 | 8.40 |
| C=C(C)[C@@H]1CC[C@]2(C(=O)NS(=O)(=O)C3CC3)CC[C@]3(C)[C@H](CC[C@@H]4[C@@]5(C)CC=C(c6ccc(C(=O)O)cc6)C(C)(C)[C@@H]5CC[C@]43C)[C@@H]12 | 7.23 |
| C=C(C)[C@@H]1CC[C@]2(C(=O)NCCN(CC)CC)CC[C@]3(C)[C@H](CC[C@@H]4[C@@]5(C)CC=C(c6ccc(C(=O)O)cc6)C(C)(C)[C@@H]5CC[C@]43C)[C@@H]12 | 8.70 |
| C=C(C)[C@@H]1CC[C@]2(C(=O)NCC(N)=O)CC[C@]3(C)[C@H](CC[C@@H]4[C@@]5(C)CC=C(c6ccc(C(=O)O)cc6)C(C)(C)[C@@H]5CC[C@]43C)[C@@H]12 | 8.22 |
| C=C(C)[C@@H]1CC[C@]2(C(=O)NCCN3CCOCC3)CC[C@]3(C)[C@H](CC[C@@H]4[C@@]5(C)CC=C(c6ccc(C(=O)O)cc6)C(C)(C)[C@@H]5CC[C@]43C)[C@@H]12 | 8.15 |
| C=C(C)[C@@H]1CC[C@]2(C(=O)NCCN(CC)CC(=O)O)CC[C@]3(C)[C@H](CC[C@@H]4[C@@]5(C)CC=C(c6ccc(C(=O)O)cc6)C(C)(C)[C@@H]5CC[C@]43C)[C@@H]12 | 8.52 |
